- PROTOCOL_SUMMARY: Resistance ratio of IC50 for cytotoxicity against multidrug resistance human MES-SA/Dx5 cells to IC50 for cytotoxicity against human MES-SA cells
- Type: functional
RECORDED_METRIC: Ratio IC50

1) C=C[C@H]1CN2CC[C@H]1C[C@H]2[C@@H](Nc1c(Nc2cc(C(F)(F)F)cc(C(F)(F)F)c2)c(=O)c1=O)c1ccnc2ccc(OC)cc12: 3
2) CC[C@H]1CN2CC[C@H]1C[C@H]2[C@@H](N)c1ccnc2ccc(OC)cc12: 1.3
3) C#C[C@H]1CN2CC[C@H]1C[C@H]2[C@@H](N)c1ccnc2ccc(OC)cc12: 5.6
4) C=C[C@H]1CN2CC[C@H]1C[C@H]2[C@H](O)c1ccnc2ccc(OC)cc12: 0.7
5) C#C[C@H]1CN2CC[C@H]1C[C@H]2[C@@H](Nc1c(Nc2cc(C(F)(F)F)cc(C(F)(F)F)c2)c(=O)c1=O)c1ccnc2ccc(OC)cc12: 3.7
6) CC[C@H]1CN2CC[C@H]1C[C@H]2[C@@H](Nc1c(NCc2ccccc2)c(=S)c1=S)c1ccnc2ccc(OC)cc12: 1.1
7) C#C[C@H]1CN2CC[C@H]1C[C@H]2[C@H](O)c1ccnc2ccc(OC)cc12: 0.8
8) C=C[C@H]1CN2CC[C@H]1C[C@H]2[C@@H](NC(=S)Nc1cc(C(F)(F)F)cc(C(F)(F)F)c1)c1ccnc2ccc(OC)cc12: 1.2
9) CC[C@H]1CN2CC[C@H]1C[C@H]2[C@@H](Nc1c(NCc2ccccc2)c(=O)c1=O)c1ccnc2ccc(OC)cc12: 6.6
10) CC[C@H]1CN2CC[C@H]1C[C@H]2[C@@H](Nc1c(Nc2cc(C(F)(F)F)cc(C(F)(F)F)c2)c(=O)c1=O)c1ccnc2ccc(OC)cc12: 2.9
11) Oc1c(CN2CCCCC2)ccc2cccnc12: 0.1
12) COc1cccc2c1C(=O)c1c(O)c3c(c(O)c1C2=O)C[C@@](O)(C(=O)CO)C[C@@H]3O[C@H]1C[C@H](N)[C@H](O)[C@H](C)O1: 62.5
13) CC[C@H]1CN2CC[C@H]1C[C@H]2[C@H](O)c1ccnc2ccc(OC)cc12 [HYDROQUININE]: 1
14) CC[C@H]1CN2CC[C@H]1C[C@H]2[C@@H](NC(=S)Nc1cc(C(F)(F)F)cc(C(F)(F)F)c1)c1ccnc2ccc(OC)cc12: 1.2
15) C#C[C@H]1CN2CC[C@H]1C[C@H]2[C@@H](NC(=S)Nc1cc(C(F)(F)F)cc(C(F)(F)F)c1)c1ccnc2ccc(OC)cc12: 0.9
16) C=C[C@H]1CN2CC[C@H]1C[C@H]2[C@@H](N)c1ccnc2ccc(OC)cc12: 2.4

====

- PROTOCOL_SUMMARY: Resistance ratio of IC50 for cytotoxicity against multidrug resistance human MES-SA/Dx5 cells in presence of P-gp inhibitor Tariquidar to IC50 for cytotoxicity against human MES-SA cells in presence of P-gp inhibitor Tariquidar
- Assay type: functional
Please mark TRUE if the recorded Ratio IC50 is equal to or greater than 0.8, and FALSE if it falls below.

1) CC[C@H]1CN2CC[C@H]1C[C@H]2[C@@H](Nc1c(NCc2ccccc2)c(=O)c1=O)c1ccnc2ccc(OC)cc12: TRUE
2) C#C[C@H]1CN2CC[C@H]1C[C@H]2[C@@H](N)c1ccnc2ccc(OC)cc12: TRUE
3) CC[C@H]1CN2CC[C@H]1C[C@H]2[C@@H](N)c1ccnc2ccc(OC)cc12: FALSE
4) CC[C@H]1CN2CC[C@H]1C[C@H]2[C@@H](Nc1c(Nc2cc(C(F)(F)F)cc(C(F)(F)F)c2)c(=O)c1=O)c1ccnc2ccc(OC)cc12: FALSE
5) C#C[C@H]1CN2CC[C@H]1C[C@H]2[C@@H](Nc1c(Nc2cc(C(F)(F)F)cc(C(F)(F)F)c2)c(=O)c1=O)c1ccnc2ccc(OC)cc12: FALSE
6) C=C[C@H]1CN2CC[C@H]1C[C@H]2[C@H](O)c1ccnc2ccc(OC)cc12: FALSE
7) C#C[C@H]1CN2CC[C@H]1C[C@H]2[C@H](O)c1ccnc2ccc(OC)cc12: FALSE
8) C=C[C@H]1CN2CC[C@H]1C[C@H]2[C@@H](N)c1ccnc2ccc(OC)cc12: TRUE
9) CC[C@H]1CN2CC[C@H]1C[C@H]2[C@@H](Nc1c(NCc2ccccc2)c(=S)c1=S)c1ccnc2ccc(OC)cc12: TRUE
10) C=C[C@H]1CN2CC[C@H]1C[C@H]2[C@@H](Nc1c(Nc2cc(C(F)(F)F)cc(C(F)(F)F)c2)c(=O)c1=O)c1ccnc2ccc(OC)cc12: FALSE
